# study_system: SARS-CoV-2 Papain-like (PLpro) protease (Severe acute respiratory syndrome coronavirus 2, UniProt P0DTD1)
# experiment_description: SARS-CoV-2 Papain-like (PLpro) protease biochemical enzyme inhibition assay (ubiquitin-fluorophore substrate, Ub-R110)
# details: Ub-R110 substrate; run in duplicate; read-out: PLpro IC50
# IC50 per record follows

[[record]]
chem_smiles = "C#CCNC(=O)C(=O)NCc1ccccc1C(=O)NC1(c2cccc3cc(F)ccc23)CC1"
recorded_measurement = "< 100 nM"

[[record]]
chem_smiles = "C[C@@H](NC(=O)c1cc(F)cc(F)c1CNC(=O)C(=O)NCC#N)c1cccc2ccccc12"
recorded_measurement = "> 10000 nM"

[[record]]
chem_smiles = "C#CCNC(=O)C(=O)NCc1ccccc1C(=O)NC1(c2cc(Oc3ccccc3)cc(C(F)(F)F)c2)CC1"
recorded_measurement = "> 10000 nM"


Kindly indicate its recorded IC50. Item: N#CCNC(=O)C(=O)NCc1ccccc1C(=O)NC1(c2cc(-c3cn(-c4ccc(F)cc4F)nn3)cc(C(F)(F)F)c2)CC1 > 10000 nM

Tell me measured IC50 for O=C(NC/C=C\c1nccs1)C(=O)NCc1ccccc1C(=O)NC1(c2ccc3ccccc3c2)CC1 please. 1000 to 10000 nM

Dear colleague, please send me the reported IC50 for Cn1cc2cc(C3(NC(=O)c4ccccc4CNC(=O)C(=O)NCC#Cc4ncccc4Cl)CC3)ccc2n1 when you can. < 100 nM

Give the value of IC50 reported for the following: C[C@@H](C#Cc1nccs1)NC(=O)C(=O)NCc1ccccc1C(=O)N[C@H](C)c1cc(F)cc(-c2cnn(C(F)F)c2)c1 < 100 nM

Look up IC50 of Cn1cc2cc(C3(NC(=O)c4ccccc4CNC(=O)C(=O)NCC#Cc4ccc(Cl)cc4F)CC3)ccc2n1 and report it. < 100 nM

Specify IC50 for C#CCNC(=O)C(=O)NCc1ccccc1C(=O)NC1(c2cc(Cl)cc(-n3cccn3)c2)CC1 and stop. 100 to 1000 nM

Please list IC50 recorded for the molecule O=C(NC/C=C/C(=O)N1CC(F)(F)C1)C(=O)NCc1ccccc1C(=O)NC1(c2cccc3ccccc23)CC1 100 to 1000 nM

Report IC50 for C#CCNC(=O)C(=O)NCc1ccccc1C(=O)NC1(c2cc(-c3ccccc3)cc(C(F)(F)F)c2)CC1 < 100 nM

Give the reported value of IC50 for this record: N#CCNC(=O)C(=O)NCc1ccccc1C(=O)NC1(c2cc(-c3cnn(C4CC4)c3)cc(C3CC3)c2)CC1 < 100 nM
